- Tested on: Enterococcus faecium and faecalis (RESISTANT)
- Format: cell-based
- conditionDetails: geometric mean of 4-6 isolates
measurementKind: Minimal Inhibitory Concentration (MIC) RESISTANT
One number for each entry.

Q: # lookup: Minimal Inhibitory Concentration (MIC) RESISTANT of CSc1ccc(CN[C@H]2C(=O)N[C@@H](CC(N)=O)C(=O)N[C@H]3C(=O)N[C@H]4C(=O)N[C@H](C(=O)N[C@H](C(=O)O)c5cc(O)cc(O)c5-c5cc4ccc5O)[C@H](O[C@H]4C[C@](C)(N)[C@@H](O)[C@H](C)O4)c4ccc(c(Cl)c4)Oc4cc3cc(c4O[C@@H]3O[C@H](CO)[C@@H](O)[C@H](O)[C@H]3O[C@H]3C[C@](C)(NCc4ccc(SC)cc4)[C@@H](O)[C@H](C)O3)Oc3ccc(cc3Cl)[C@H]2O)cc1
Result: 6.7

----------
- Tested on: Enterococcus faecium and faecalis (RESISTANT)
- Assay type: cell-based
- conditionDetails: geometric mean of 4-6 isolates
measurementKind: Minimal Inhibitory Concentration (MIC) RESISTANT
One number for each entry.

Recorded results for 3 compounds are shown here.
C[C@@H]1O[C@@H](O[C@H]2[C@H](Oc3c4cc5cc3Oc3ccc(cc3Cl)[C@@H](O[C@H]3C[C@](C)(N)[C@@H](O)[C@H](C)O3)[C@@H]3NC(=O)[C@H](NC(=O)[C@@H]5NC(=O)[C@H](CC(N)=O)NC(=O)[C@H](NCc5ccc(O)cc5)[C@H](O)c5ccc(c(Cl)c5)O4)c4ccc(O)c(c4)-c4c(O)cc(O)cc4[C@@H](C(=O)O)NC3=O)O[C@H](CO)[C@@H](O)[C@@H]2O)C[C@](C)(N)[C@H]1O [Example 13, N^1 -(p-HYDROXYBENZYL)-DESLEUCYL-A82846B]: 54
C[C@@H]1O[C@@H](O[C@@H]2c3ccc(c(Cl)c3)Oc3cc4cc(c3O[C@@H]3O[C@H](CO)[C@@H](O)[C@H](O)[C@H]3O[C@H]3C[C@](C)(NCc5ccc(-c6ccccc6)cc5)[C@@H](O)[C@H](C)O3)Oc3ccc(cc3Cl)[C@@H](O)[C@@H](NCc3ccc(-c5cc(C(F)(F)F)cc(C(F)(F)F)c5)cc3)C(=O)N[C@@H](CC(N)=O)C(=O)N[C@H]4C(=O)N[C@H]3C(=O)N[C@@H]2C(=O)N[C@H](C(=O)O)c2cc(O)cc(O)c2-c2cc3ccc2O)C[C@](C)(N)[C@H]1O: 5.7
C[C@@H]1O[C@@H](O[C@@H]2c3ccc(c(Cl)c3)Oc3cc4cc(c3O[C@@H]3O[C@H](CO)[C@@H](O)[C@H](O)[C@H]3O[C@H]3C[C@](C)(NCc5ccc(-c6ccccc6)cc5)[C@@H](O)[C@H](C)O3)Oc3ccc(cc3Cl)[C@@H](O)[C@@H](NCCCCCCc3ccccc3)C(=O)N[C@@H](CC(N)=O)C(=O)N[C@H]4C(=O)N[C@H]3C(=O)N[C@@H]2C(=O)N[C@H](C(=O)O)c2cc(O)cc(O)c2-c2cc3ccc2O)C[C@](C)(N)[C@H]1O: 64

Okay, now this compound:
Q: # input compound: CCCCCCCCOc1ccc(CN[C@H]2C(=O)N[C@@H](CC(N)=O)C(=O)N[C@H]3C(=O)N[C@H]4C(=O)N[C@H](C(=O)N[C@H](C(=O)O)c5cc(O)cc(O)c5-c5cc4ccc5O)[C@H](O[C@H]4C[C@](C)(N)[C@@H](O)[C@H](C)O4)c4ccc(c(Cl)c4)Oc4cc3cc(c4O[C@@H]3O[C@H](CO)[C@@H](O)[C@H](O)[C@H]3O[C@H]3C[C@](C)(N)[C@@H](O)[C@H](C)O3)Oc3ccc(cc3Cl)[C@H]2O)cc1 ; wanted: its Minimal Inhibitory Concentration (MIC) RESISTANT
Result: 11
